test system: Salmonella typhimurium; assay: Genotoxicity in Salmonella typhimurium TA102 harboring […] mutant assessed as frequency of reversion from histidine auxotrophy to prototrophy at 30 mM after 48 hrs by Ames test (reference value: 209 +/- 10 No _unit); assay type: toxicity, organism-based; details: salmonella enterica subsp. enterica serovar typhimurium, 30000 µM
Listing of recorded Activity by entry.
Answer with a bare number; do not write a unit.

Cc1c(C)c2c(c(C)c1OC(=O)CCC(=O)NC1CC(C)(C)N([O])C(C)(C)C1)CCC(C)(C(=O)NC1CC(C)(C)N([O])C(C)(C)C1)O2 (stereo unspecified) = 203
CC1(C)CC(CNC(=O)CCC(=O)O)C(C)(C)N1[O] (stereo unspecified) = 219
Cc1c(C)c2c(c(C)c1OC(=O)CCC(=O)O)CCC(C)(C(=O)NCC1CC(C)(C)N([O])C1(C)C)O2 (stereo unspecified) = 205
Cc1c(C)c2c(c(C)c1O)CCC(C)(C(=O)NC1CC(C)(C)N([O])C(C)(C)C1)O2 (stereo unspecified) = 218
Cc1c(C)c2c(c(C)c1OC(=O)CCC(=O)NC1CC(C)(C)N([O])C1(C)C)CC[C@@](C)(CCC[C@H](C)CCC[C@H](C)CCCC(C)C)O2 (stereo partly specified) = 227
Cc1c(C)c2c(c(C)c1OC(=O)CCC(=O)NCC1CC(C)(C)N([O])C1(C)C)CC[C@@](C)(CCC[C@H](C)CCC[C@H](C)CCCC(C)C)O2 (stereo partly specified) = 215

Request: Value lookup for Activity; key = Cc1c(C)c2c(c(C)c1OC(=O)CCC(=O)O)CCC(C)(C(=O)O)O2 (stereo unspecified)
Response: 216

Request: Value lookup for Activity; key = Cc1c(C)c2c(c(C)c1OC(=O)CCC(=O)NC1CC(C)(C)N([O])C1(C)C)CCC(C)(C(=O)NC1CC(C)(C)N([O])C1(C)C)O2 (stereo unspecified)
Response: 229

Request: Value lookup for Activity; key = Cc1c(C)c2c(c(C)c1O)CCC(C)(C(=O)NCC1CC(C)(C)N([O])C1(C)C)O2 (stereo unspecified)
Response: 225

Request: Value lookup for Activity; key = Cc1c(C)c2c(c(C)c1OC(=O)CCC(=O)O)CC[C@@](C)(CCC[C@H](C)CCC[C@H](C)CCCC(C)C)O2 [(+)-ALPHA-TOCOPHERYL SUCCINATE]
Response: 216

Request: Value lookup for Activity; key = CC1(C)CC(NC(=O)CCC(=O)O)C(C)(C)N1[O] (stereo unspecified)
Response: 199

====

Listing of recorded inhibition at 300 µM by entry.
assay: Cytotoxicity against human MCF7 cells assessed as reduction in cell viability at 300 uM after 72 hrs by MTT assay; type: functional; settings: MCF7, 72 h
Unit % implied. Number only.

Consider the reported inhibition at 300 µM for these compounds:
Cc1c(C)c2c(c(C)c1OC(=O)CCC(=O)O)CCC(C)(C(=O)O)O2 (stereo not drawn) = 15
Cc1c(C)c2c(c(C)c1OC(=O)CCC(=O)NC1CC(C)(C)N([O])C(C)(C)C1)CC[C@@](C)(CCC[C@H](C)CCC[C@H](C)CCCC(C)C)O2 = 28

Request: Value lookup for inhibition at 300 µM; key = Cc1c(C)c2c(c(C)c1OC(=O)CCC(=O)O)CCC(C)(C(=O)NCC1CC(C)(C)N([O])C1(C)C)O2 (stereo not drawn)
Response: 24

Cited source for all entries: ChEMBL document CHEMBL3865792
